- Tested on: HCT-116
- test details: NCI tumour cell line growth inhibition, 48 h
Activity calls are given as the source filed them. Cut-off read from the data, not from the text of the source: active = GI50 up to about 1.1 µM and inactive = higher.
Assign a class; possible classes are 1.0 for active, 0.0 for inactive

Field: example entries. Status: answers known.
compound	discrete label
NC1CC(=O)c2c(Cl)sc(Cl)c21 (centres undefined)	0.0
CC1OC(=O)C2CC3CCCCC3C(/C=C/C3CCCC(C)N3C)C12 (centres undefined)	0.0
CCOC(=O)Nn1cnnc1C	0.0
CCOc1cc2c(cc1O)C=C[C@@H]1[C@@H]2CC[C@]2(C)[C@@H](O)CC[C@@H]12	1.0
CP(C)(=S)P(C)(C)=S	0.0
COP(=O)(OC)C12CCOCCN1c1ccccc1C2=O (centres undefined)	0.0
NCCSc1cc(O)c2c(c1N)C(=O)c1ccccc1C2=O	0.0
CC(=O)OC[C@@]12Cc3ccc(C)c(O)c3[C@]1(C)[C@@H](OC(C)=O)[C@]1(O)[C@H]([C@@H](OC(=O)c3ccccc3)[C@@H](C)[C@H]1OC(C)=O)[C@H]2OC(C)=O	0.0

Now for another entry.
Q: Per the assay record, what outcome was assigned to `O=C(OCc1ccccc1)C1(N2CN(C3(C(=O)OCc4ccccc4)CCCC3)CN(C3(C(=O)OCc4ccccc4)CCCC3)C2)CCCC1` ?
Result: 0.0

* * *

- System: ACHN
- test details: NCI tumour cell line growth inhibition, 48 h
Activity calls are given as the source filed them. Cut-off read from the data, not from the text of the source: active = GI50 up to about 1.1 µM and inactive = higher.
Assign GI50 to each entry below.

Use these answered entries as a reference point.
compound	meas value
O=C(NCO)NCOCn1c(=O)n(CO)c(=O)n(CO)c1=O	49.1 µM (inactive)
CN1N=C(N)c2cn(C3OC(COP(=O)(O)O)C(O)C3O)c3ncnc1c23 (centres undefined)	3.16 µM (inactive)
N=C(N)NCC1CCCCCCN1 (centres undefined)	> 100 µM (inactive)

// below: GI50 requested for another compound
Q: Query: GI50; subject: `C=C(C[C@@H](O)[C@H](C)NC(=O)OCc1ccccc1)C(=O)OC(C)(C)C`
Result: > 100 µM (inactive)

* * *

- Tested on: T47D
- test details: NCI tumour cell line growth inhibition, 48 h
Activity calls are given as the source filed them. No stated cut-off is given here; in the data, active = GI50 up to about 1.1 µM and inactive = higher.
Assign GI50 to each entry below.

Use these answered entries as a reference point.
compound	GI50
CCOC(=O)NC(NC1=NCCS1)(C(=O)OCC)C(F)(F)F (stereo not drawn)	> 100 µM (inactive)
O=S(=O)(O)c1ccc(/N=N/c2c(O)ccc3ccccc23)cc1	> 100 µM (inactive)
O=[N+]([O-])C(=C(N1CCOCC1)N1CCOCC1)/C(Cl)=C(\Cl)Br	15.7 µM (inactive)
Clc1ccc(Cl)c(SCCCN2CCNCC2)c1	23.9 µM (inactive)
COC(=O)Cc1c(-c2[nH]c3ccccc3c2CC(=O)OC)[nH]c2ccccc12	2.13 µM (inactive)

Go through the list and state GI50 for each entry.
1. COC(=O)C[C@H](COCc1ccccc1)NC(=O)C[C@H](COCc1ccccc1)NC(=O)C[C@H](COCc1ccccc1)NC(=O)OC(C)(C)C
2. CC(=O)C1(Cc2cccc3ccccc23)S(=O)(=O)OCCOS1(=O)=O
3. c1ccc2c(c1)N=c1cc3c(cc1N2)=NC12CCCCC1CC1=C(CCCC1)N32 (stereo not drawn)
4. NC(=S)NC/C=C/Cl
5. Cc1ccc(-n2c(O)c(C#N)c3[nH]nc(N)c3c2=O)cc1

Result:
1: 24.7 µM (inactive); 2: 18.5 µM (inactive); 3: 3.94 µM (inactive); 4: > 100 µM (inactive); 5: > 100 µM (inactive)

Go through the list and state GI50 for each entry.
1. CCCCCCCCCCC/C=C(/C(=O)CCCO[Si](C)(C)C(C)(C)C)C(=O)OC
2. N#C/C(=C/C=C/c1ccco1)C(N)=O

Result:
> 100 µM (inactive)
> 10 µM (inactive)

* * *

- Test system: BT-549
- test details: NCI tumour cell line growth inhibition, 48 h
Activity calls are given as the source filed them. No stated cut-off is given here; in the data, active = GI50 up to about 1.1 µM and inactive = higher.
value type: GI50

molecule	GI50
C[C@H]1[C@H](N2CCCC2)O[Si](C(C)(C)C)(C(C)(C)C)[C@@H]1C	> 100 µM (inactive)

Go through the list and state GI50 for each entry.
1. Clc1ccc(Cl)c(SCCCN2CCNCC2)c1
2. NS(=O)(=O)c1nnc(NS(=O)(=O)c2cccc3cccnc23)s1
3. CCOC(=O)COc1cc(-c2ccccc2)nc2cc(F)ccc12
4. S=c1nc(N2CCCCC2)c2cn[nH]c2[nH]1
5. COc1c2c(nc3ccccc13)-c1cc(C(CC(=O)OC(C)(C)C)C(=O)OC(C)C)c(CO)c(=O)n1C2 (stereo unspecified)
6. CC(=O)C1(Cc2cccc3ccccc23)S(=O)(=O)OCCOS1(=O)=O
7. CN1c2ccccc2C2=C(c3ccccc3)CC[C@@H](C(=O)N3C4CC5CC[C@@]4(CS3(=O)=O)C5(C)C)[C@@H]21 (stereo partly specified)
8. O=C(c1cscc1CCc1ccccc1)c1cscc1CCc1ccccc1

Result:
1: 17.1 µM (inactive); 2: > 100 µM (inactive); 3: > 100 µM (inactive); 4: 26.1 µM (inactive); 5: > 66.4 µM (inactive); 6: 16.9 µM (inactive); 7: > 100 µM (inactive); 8: > 100 µM (inactive)

Go through the list and state GI50 for each entry.
1. Cc1nnc(SCc2nc(C#N)c(C#N)nc2CSc2nnc(C)s2)s1
2. CCNCC(O)c1ccc(N)c([N+](=O)[O-])c1 (stereo unspecified)
3. COc1cccc(C2SC(=N)Nc3c2c(C)nn3C(=O)c2ccccc2O)c1 (stereo unspecified)
4. Cn1c(=N)n[n+]([O-])c2ccccc21
5. Cc1ccc([S+]([O-])c2sccc2C=O)cc1 (stereo unspecified)

Result:
16.2 µM (inactive)
> 100 µM (inactive)
> 10 µM (inactive)
2.01 µM (inactive)
25 µM (inactive)

Go through the list and state GI50 for each entry.
1. O=C1C(=C/C=C2/SC(c3ccccc3)(c3ccccc3)c3ccccc32)C(=O)c2ccccc21
2. COc1ccc2c(c1)C(=O)OCCC2

Result:
["> 100 µM (inactive)", "> 100 µM (inactive)"]

* * *

- System: HOP-92
- test details: NCI tumour cell line growth inhibition, 48 h
Activity calls are given as the source filed them. Rule as the data show it: active = GI50 up to about 1.1 µM and inactive = higher.
Assign GI50 to each entry below.

compound	meas value
Nc1nc(Cl)c(N)c(NC23CC4CC(CC(C4)C2)C3)n1	3.89 µM (inactive)
COC1C(=O)CCC2(CO2)C1(O)C1(C)OC1CC=C(C)C (configuration not stated)	25.8 µM (inactive)
CCOC(=O)N(C)C1(c2ccccc2)CCN(CCCC(=O)c2ccc(F)cc2)CC1	34.8 µM (inactive)
CC1OC(=O)C2CC3CCCCC3C(/C=C/C3CCCC(C)N3C)C12 (configuration not stated)	> 100 µM (inactive)
CC(C)(C)C1CCC2c3c([nH]c4ccccc34)C3C(=O)N(c4ccc(C(=O)O)cc4)C(=O)C3C2C1 (configuration not stated)	11.2 µM (inactive)

Go through the list and state GI50 for each entry.
1. CC(C)c1ccccc1NC(=O)CCC(=O)NN
2. CC(C)(C)OC(=O)C1=C(O)C(C(=O)OC(C)(C)C)C23CCCCC12C(C(=O)OC(C)(C)C)C(O)=C3C(=O)OC(C)(C)C (configuration not stated)

Result:
1. > 100 µM (inactive)
2. > 100 µM (inactive)

* * *

- Test system: MDA-MB-435
- test details: NCI tumour cell line growth inhibition, 48 h
Calls of active or inactive are those of the source. Cut-off read from the data, not from the text of the source: active = GI50 up to about 1.1 µM and inactive = higher.
Assign a class; possible classes are active, inactive

compound	discrete label
CCOC(=O)COc1cc(-c2ccccc2)nc2cc(F)ccc12	inactive
Nc1ncc(C=O)c(NCC2(CO)CCC2)n1	inactive
CN1N=C(N)c2cn(C3OC(COP(=O)(O)O)C(O)C3O)c3ncnc1c23 (centres undefined)	inactive
CC1(C)C=Cc2c(cc3oc4ccc5c(c4c(=O)c3c2O)C=CC(C)(C)O5)O1	inactive
CC1CC(=O)N2CCCNC2=C1C#N (centres undefined)	inactive

Now for another entry.
Q: Per the assay record, what outcome was assigned to `CC(C)NC(=O)CN1CCN(C2=CC(=O)c3c(O)ccc(O)c3C2=O)CC1` ?
Result: inactive

* * *

- System: CAKI-1
- test details: NCI tumour cell line growth inhibition, 48 h
Calls of active or inactive are those of the source. Cut-off read from the data, not from the text of the source: active = GI50 up to about 1.1 µM and inactive = higher.
Assign a class; possible classes are YES for active, NO for inactive

compound	experimental target	discrete label
NC(C(=O)O)c1cc(O)no1 (centres undefined)	CAKI-1	NO

Q: Per the assay record, what outcome was assigned to `Cc1ccc(C(=O)N/N=C(\N=N\c2ccccc2)c2ccc(N(CCC#N)CCC#N)cc2C)cc1` ?
Result: NO

Q: Quick one: `CCOC(=O)Nn1cnnc1C`
Result: NO

Q: Quick one: NC1Cc2ccccc2OC1=O (centres undefined)
Result: NO

Q: Quick one: CC(C)CCC[C@@H](C)C1CCC2[C@@H]3CC=C4C[C@@H](C(=O)NCC[N+](C)(C)CCCS(=O)(=O)[O-])CC[C@]4(C)C3CC[C@@]21C (some centres undefined)
Result: NO

Q: Quick one: `Cc1ccc(S(=O)(=O)N2CCSCCSCCN(S(=O)(=O)c3ccc(C)cc3)CCN(S(=O)(=O)c3ccc(C)cc3)CC2)cc1`
Result: NO

Q: Quick one: `Cc1cc2nc(O)c(CCC(=O)O)nc2cc1C`
Result: NO

Q: Quick one: COC(=O)C1=Cc2cc(OC)c(OC)c(OC)c2[C@H](c2cc(OC)c(OC)c(OC)c2)C1C(=O)OC (some centres undefined)
Result: NO

Q: Quick one: `NCCCCNCCCNC(=O)c1nc(-c2csc(CCN)n2)sc1Cl`
Result: NO

Q: Quick one: `CCCCCOc1ccc(NC2=C(Cl)C(=O)c3c(O)ccc(O)c3C2=O)cc1`
Result: NO

Q: Quick one: COC(=O)[C@]1(C)CCC[C@@]2(C)C1CC[C@]13C=C(C(C)C)[C@H](CC21)CC3(Cl)C#N (some centres undefined)
Result: NO

Q: Quick one: `CCc1nc(N)nc(N)c1-c1ccc(Cl)c(/N=N/N(C)C)c1`
Result: NO

Q: Quick one: CC(C)=CCc1c2c(c(O)c3c(=O)c4c(oc13)-c1ccc(O)cc1OC4C=C(C)C)C=CC(C)(C)O2 (centres undefined)
Result: NO

Q: Quick one: `O=c1ccc(=O)c2c(=O)c3ccccc3c(=O)c1=2`
Result: NO

Q: Quick one: `COc1ccc(CCc2nccn2C)cc1OC`
Result: NO

Q: Quick one: `Clc1ccc(Cl)c(SCCCN2CCNCC2)c1`
Result: NO

Q: Quick one: CCC1CN2CCc3cc(OC)c(OC)cc3C2CC1CC1c2cc(OC)c(OC)cc2CCN1C(=O)C(Cc1c[nH]c2ccccc12)NC(=O)OC(C)(C)C (centres undefined)
Result: NO

Q: Quick one: OC1(c2ccccc2)C2CC=CC2C1(c1ccccc1)c1ccccc1 (centres undefined)
Result: NO

Q: Quick one: `CC(=O)Nc1cc(Cl)cc(Cl)c1O`
Result: NO

Q: Quick one: COC(=O)C1=NN2c3ccccc3C(=O)OCCC2C1 (centres undefined)
Result: NO

Q: Quick one: `CC(=O)OC[C@@]12Cc3ccc(C)c(O)c3[C@]1(C)[C@@H](OC(C)=O)[C@]1(O)[C@H]([C@@H](OC(=O)c3ccccc3)[C@@H](C)[C@H]1OC(C)=O)[C@H]2OC(C)=O`
Result: NO

Q: Quick one: `Cc1ccc(C(=N)Nc2ccccc2)cc1`
Result: NO

Q: Quick one: `NCCSc1cc(O)c2c(c1N)C(=O)c1ccccc1C2=O`
Result: NO

Q: Quick one: `O=C1CCC[C@H]2O[C@@H](COC(=O)c3ccccc3)C[C@H]2O1`
Result: NO

Cited source: ChEMBL document CHEMBL1201862
